Literature-derived pKi for UniProt:P28702 follows.
pKi: −log10 of the molar value.
observation-type: pKi

In the examples that follow, each entry is paired with its recorded pKi.
- C/C(=C\C(=O)O)c1cc2c(-c3cc(C(C)(C)C)cc(C(C)(C)C)c3OCCC(F)F)cccc2s1: 7.92
- COc1cc2c(cc1\C(C)=C/C=C/C(C)=C/C(=O)O)C(C)(C)CCC2(C)C: 8.70

I. C/C(=C\C(=O)O)c1cc2c(-c3cc(C(C)(C)C)cc(C(C)(C)C)c3OCCCF)cccc2s1
II. CC(/C=C/C1(c2ccc3c(c2)C(C)(C)CCC3(C)C)CCCC1)=C\C(=O)O
III. C/C(=C\C(=O)O)c1cc2cccc(-c3cc(C(C)C)cc(C(C)C)c3OCC(F)F)c2o1
IV. CC(/C=C/C1(c2cc3c(cc2C)C(C)(C)CCC3(C)C)CC1)=C\C(=O)O
Input line: Sort (4 compounds) by pKi: min first. Answer format: the labels, in the requested order.
Output line: III, II, I, IV

P. CCCOc1cc2c(cc1\C(C)=C/C=C/C(C)=C/C(=O)O)C(C)(C)CCC2(C)C
Q. C=C(c1ccc(C(=O)O)cc1)c1ccc2c(c1)C(C)(C)CCC2(C)C
Input line: Sorting ascending by pKi, which comes first: P or Q ? Selection: enter the item's label.
Output line: Q
(Q: 6.70, P: 8.05)

A. CCCCCCCOc1c(-c2cccc3sc(/C(C)=C/C(=O)O)cc23)cc(C(C)(C)C)cc1C(C)(C)C
B. C/C(=C\C(=O)O)c1cc2c(-c3cc(C(C)(C)C)cc(C(C)(C)C)c3C)cccc2s1
Input line: Pick the one with the larger pKi: A vs B Please indicate the selected item by its label.
Output line: A

====

What follows is literature data on pKi for Retinoic acid receptor RXR-beta (Homo sapiens, UniProt P28702).
pKi: −log10 of the molar value.
observation-type: pKi

* CC(/C=C/C1(c2ccc3c(c2)C(C)(C)CCC3(C)C)CC1)=C\C(=O)O | 8.15
* C/C(=C\C(=O)O)c1cc2c(-c3cc(C(C)(C)C)cc(C(C)(C)C)c3OCC(F)(F)F)cccc2s1 | 8.00
* CCCOc1c(-c2cccc3sc(/C(C)=C/C(=O)O)cc23)cc(C(C)C)cc1C(C)C | 7.82
* CCOc1c(-c2cccc3sc(/C(C)=C/C(=O)O)cc23)cc(C(C)C)cc1C(C)C | 7.96

a. CC(/C=C/C=C(\C)c1cc(C(C)(C)C)cc(C(C)(C)C)c1)=C\C(=O)O (stereo in doubt; form 1)
b. CCCCOc1c(-c2cccc3cc(/C(C)=C(\F)C(=O)O)oc23)cc(C(C)C)cc1C(C)C
Input line: // compare measured pKi between a and b ; output the lower one Respond using the label that marks the chosen record.
Output line: b
